subject of test: human integrin αvβ6 (Homo sapiens (Human), UniProt P06756+P18564)
Sequence (P06756 31-992): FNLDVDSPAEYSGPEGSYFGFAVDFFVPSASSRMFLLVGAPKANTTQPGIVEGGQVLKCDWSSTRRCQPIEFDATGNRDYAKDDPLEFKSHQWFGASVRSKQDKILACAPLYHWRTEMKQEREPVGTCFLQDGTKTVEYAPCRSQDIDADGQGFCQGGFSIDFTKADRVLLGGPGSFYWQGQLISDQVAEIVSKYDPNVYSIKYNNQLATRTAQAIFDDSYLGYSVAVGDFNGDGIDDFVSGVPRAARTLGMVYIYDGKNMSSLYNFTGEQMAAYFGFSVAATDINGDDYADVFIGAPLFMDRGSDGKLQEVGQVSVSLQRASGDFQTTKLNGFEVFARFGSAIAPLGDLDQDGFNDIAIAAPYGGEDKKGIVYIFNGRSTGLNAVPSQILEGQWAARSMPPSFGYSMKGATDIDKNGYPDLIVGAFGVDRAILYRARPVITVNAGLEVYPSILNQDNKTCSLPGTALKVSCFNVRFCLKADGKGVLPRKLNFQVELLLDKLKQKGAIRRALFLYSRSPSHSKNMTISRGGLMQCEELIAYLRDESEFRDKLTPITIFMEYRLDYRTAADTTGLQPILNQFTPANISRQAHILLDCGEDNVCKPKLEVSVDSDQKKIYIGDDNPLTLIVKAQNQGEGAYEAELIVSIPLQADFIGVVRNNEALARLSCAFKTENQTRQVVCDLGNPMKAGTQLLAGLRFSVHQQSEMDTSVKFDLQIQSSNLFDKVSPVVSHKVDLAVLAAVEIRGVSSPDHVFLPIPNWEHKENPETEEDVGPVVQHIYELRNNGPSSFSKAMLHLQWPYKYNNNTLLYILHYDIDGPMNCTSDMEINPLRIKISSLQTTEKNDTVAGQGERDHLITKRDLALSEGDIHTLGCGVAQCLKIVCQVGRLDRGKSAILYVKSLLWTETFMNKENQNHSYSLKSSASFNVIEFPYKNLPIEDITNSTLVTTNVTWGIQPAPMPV
Sequence (P18564 22-707): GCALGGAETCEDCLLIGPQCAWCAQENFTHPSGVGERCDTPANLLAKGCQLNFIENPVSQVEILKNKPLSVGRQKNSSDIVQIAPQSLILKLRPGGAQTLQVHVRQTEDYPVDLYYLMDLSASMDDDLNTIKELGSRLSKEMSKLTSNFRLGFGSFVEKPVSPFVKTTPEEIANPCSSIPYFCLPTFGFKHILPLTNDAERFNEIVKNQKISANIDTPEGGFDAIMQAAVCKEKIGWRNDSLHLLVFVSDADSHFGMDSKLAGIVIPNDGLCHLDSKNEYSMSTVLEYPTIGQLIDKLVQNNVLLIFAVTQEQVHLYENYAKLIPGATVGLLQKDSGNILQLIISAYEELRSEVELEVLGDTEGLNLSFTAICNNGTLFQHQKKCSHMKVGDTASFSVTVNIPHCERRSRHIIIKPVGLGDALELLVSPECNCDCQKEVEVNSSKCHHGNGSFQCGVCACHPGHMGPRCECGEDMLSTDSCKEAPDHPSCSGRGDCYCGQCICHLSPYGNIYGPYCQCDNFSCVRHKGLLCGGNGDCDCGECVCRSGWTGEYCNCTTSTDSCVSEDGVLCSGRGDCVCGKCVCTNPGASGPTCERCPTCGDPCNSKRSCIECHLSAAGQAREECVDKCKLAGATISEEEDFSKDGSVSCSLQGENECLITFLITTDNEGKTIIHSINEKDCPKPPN
procedure details: Proximity-based integrin receptor binding assay (ALPHASCREEN) for inhibitor potency
conditions used: inhibition of binding of TGF-b1 LAP to human integrin αvβ6; values given in ranges
IC50 values by entry

Solved cases below.
{"compound": "Cn1ncc2c(C(=O)NC(CCOCCCCc3ccc4c(n3)NCCC4)C(=O)O)cccc21 (stereo not shown)", "subject of test": "human integrin αvβ6 (Homo sapiens (Human), UniProt P06756+P18564)", "IC50": "> 1 µM"}
{"compound": "O=C(NC(CCO[C@H]1C[C@H](CCc2ccc3c(n2)NCCC3)C1)C(=O)O)C1Cc2ccccc2C1 (stereo partly shown) [Compound 92]", "subject of test": "human integrin αvβ6 (Homo sapiens (Human), UniProt P06756+P18564)", "IC50": "0.25 to 1 µM"}
{"compound": "O=C(N[C@@H](CCO[C@H]1C[C@H](CCc2ccc3c(n2)NCCC3)C1)C(=O)O)C1CCc2ccccc21 (single isomer, unassigned) [110**,†]", "subject of test": "human integrin αvβ6 (Homo sapiens (Human), UniProt P06756+P18564)", "IC50": "0.05 to 0.25 µM"}
{"compound": "CC(CO[C@H]1C[C@H](CCc2ccc3c(n2)NCCC3)C1)C(NC(=O)OC(C)(C)C)C(=O)O (single isomer, unassigned) [Example 145A]", "subject of test": "human integrin αvβ6 (Homo sapiens (Human), UniProt P06756+P18564)", "IC50": "0.25 to 1 µM"}
{"compound": "CC1(C(=O)N[C@@H](CCO[C@H]2C[C@@H](CCc3ccc4c(n3)NCCC4)C2)C(=O)O)CCOCC1", "subject of test": "human integrin αvβ6 (Homo sapiens (Human), UniProt P06756+P18564)", "IC50": "0.05 to 0.25 µM"}
{"compound": "O=C(NC(CCO[C@H]1C[C@H](CCc2ccc3c(n2)NCCC3)C1)C(=O)O)c1cccc(F)c1Cl (stereo partly shown) [Compound 64]", "subject of test": "human integrin αvβ6 (Homo sapiens (Human), UniProt P06756+P18564)", "IC50": "< 0.05 µM"}

The reported IC50 value, human integrin αvβ6 (Homo sapiens (Human), UniProt P06756+P18564), for O=C(N[C@@H](CCO[C@H]1C[C@H](CCc2ccc3c(n2)NCCC3)C1)C(=O)O)c1ccc(F)cc1Cl reads < 0.05 µM

###

IC50 values by entry
subject of test: human integrin αvβ6 (Homo sapiens (Human), UniProt P06756+P18564)
procedure details: Proximity-based integrin receptor binding assay (ALPHASCREEN) for inhibitor potency
conditions used: inhibition of binding of TGF-b1 LAP to human integrin αvβ6; values given in ranges

Solved cases below.
{"molecule": "CCC(CC)CC(=O)NC(CCO[C@H]1C[C@H](CCc2ccc3c(n2)NCCC3)C1)C(=O)O (stereo partly drawn) [Compound 45]", "IC50": "50 to 250 nM"}
{"molecule": "CC(C)N(C(=O)N[C@@H](CCO[C@H]1C[C@H](CCc2ccc3c(n2)NCCC3)C1)C(=O)O)C(C)C", "IC50": "< 50 nM"}
{"molecule": "COCC(C)(C)C(=O)NC(CCO[C@H]1C[C@H](CCc2ccc3c(n2)NCCC3)C1)C(=O)O (stereo partly drawn) [Compound 90]", "IC50": "250 to 1000 nM"}
{"molecule": "Cn1ncc2c(C(=O)N[C@@H](CCO[C@H]3C[C@H](CCc4ccc5c(n4)NCCC5)C3)C(=O)O)cccc21", "IC50": "50 to 250 nM"}

In plain terms, Cn1cc2ccc(C(=O)N[C@@H](CCO[C@H]3C[C@H](CCc4ccc5c(n4)NCCC5)C3)C(=O)O)cc2n1 has a documented IC50 of 50 to 250 nM

In plain terms, CC(C)(C)OC(=O)N[C@@H](CCO[C@H]1C[C@@H](CCc2ccc3c(n2)NCCC3)C1)C(=O)O has a documented IC50 of 50 to 250 nM

In plain terms, O=C(O)[C@H](CCO[C@H]1C[C@H](CCc2ccc3c(n2)NCCC3)C1)Nc1ncnc2ccccc12 has a documented IC50 of < 50 nM

In plain terms, O=C(O)C(CCO[C@H]1C[C@H](CCc2ccc3cccnc3n2)C1)Nc1ncnc2ccccc12 (stereo partly drawn) [Example 227] has a documented IC50 of 250 to 1000 nM

In plain terms, CC1(C(=O)N[C@@H](CCO[C@H]2C[C@H](CCc3ccc4c(n3)NCCC4)C2)C(=O)O)CCOCC1 has a documented IC50 of < 50 nM

In plain terms, O=C(N[C@@H](CCO[C@H]1C[C@H](CCc2ccc3c(n2)NCCC3)C1)C(=O)O)c1c(F)cccc1Cl has a documented IC50 of < 50 nM

In plain terms, CC(C)(C)C(=O)NC(CCO[C@H]1C[C@H](CCc2ccc3c(n2)NCCC3)C1)C(=O)O (stereo partly drawn) [Compound 109] has a documented IC50 of < 50 nM

Recorded values, source patent US11180494B2.
